Source of measurements: PubChem BioAssay (EPA / NIEHS)

read-out: ABC Transporter (ABCB1), ABCB1 (gene 5243); assay: LTEA_HepaRG_ABCB1: Life Technologies and Expression Analysis (LTEA) Assay for ABC Transporter (ABCB1) using HepaRG (AID 2283460); conditions: mRNA level, 48 h; actives raise or lower the signal
Calls of active or inactive are those of the source. How the source made its calls: active means hit-call score of the fitted dose curve at least 0.9, where 1 is the maximum; inactive means score below 0.9.
Assign a class; possible classes are yes (1) for active, no (0) for inactive

// query Hey, what did the test say about CCNP(=S)(OC)O/C(C)=C/C(=O)OC(C)C (configuration not stated) ?
// result yes (1)

// query What did this assay record as the result for COCC(C)N(C(=O)CCl)c1c(C)csc1C (configuration not stated) ?
// result no (0)

// query Look up the recorded call for CSC(=O)c1c(C(F)F)nc(C(F)(F)F)c(C(=O)SC)c1CC(C)C in this test.
// result no (0)

// query GET /call?item= COC(=O)NS(=O)(=O)c1ccc(N)cc1 returns the recorded outcome of this test.
// result no (0)

// query Give the logged outcome of this assay for the following compound: Cc1cc(C)nc(Nc2ccccc2)n1
// result no (0)

// query Short answer needed: outcome of this test for CCOc1nc(C(Cl)(Cl)Cl)ns1 ?
// result yes (1)

// query What did the test return for COc1cc(OC)nc(NC(=O)NS(=O)(=O)c2ncccc2OCC(F)(F)F)n1 ?
// result yes (1)

// query Please state the recorded outcome for this compound: CC(C)N1C(=O)c2ccccc2NS1(=O)=O
// result no (0)

// query What outcome does the record of this test show for CCC(C)n1c(=O)[nH]c(C)c(Br)c1=O (configuration not stated) ?
// result no (0)

// query Please state the recorded outcome for this compound: COc1cc(Cl)c(OC)cc1Cl
// result no (0)

// query Could you kindly confirm the outcome this assay logged for Cc1nc(N(C)C)nc(OC(=O)N(C)C)c1C ?
// result yes (1)

// query What was the test verdict on COP(=S)(OC)SCn1nnc2ccccc2c1=O ?
// result no (0)

// query # outcome recorded in this test, key = Nc1c(Cl)c(Cl)nc(C(=O)O)c1Cl
// result no (0)

// query Please share the test call associated with OC(c1ccc(Cl)cc1)(c1ccc(Cl)cc1)C(Cl)(Cl)Cl .
// result no (0)

// query Test call for this compound, please: COCc1cnc(C2=NC(C)(C(C)C)C(=O)N2)c(C(=O)O)c1 (configuration not stated)
// result no (0)

// query Which result was noted for this compound in the test: CC1(C)CON(Cc2ccccc2Cl)C1=O
// result yes (1)

// query Could you check what this test reported for N#Cc1c[nH]cc1-c1cccc2c1OC(F)(F)O2 ?
// result no (0)

// query Look up the recorded call for CC1(C)C(C=C(Cl)Cl)C1C(=O)OC(C#N)c1cccc(Oc2ccccc2)c1 (configuration not stated) in this test.
// result yes (1)

// query Which result was noted for this compound in the test: CCCN(CC)CC1COC2(CCC(C(C)(C)C)CC2)O1 (configuration not stated)
// result no (0)

// query What classification did CCNC(=O)NC(=O)C(C#N)=NOC end up with in this test?
// result no (0)

// query Assay outcome for Cc1ccc(N=CN(C)C=Nc2ccc(C)cc2C)c(C)c1 : what was it?
// result no (0)

// query What did the test return for Nc1cnn(-c2ccccc2)c(=O)c1Cl ?
// result no (0)
